target: human orexin type 2 receptor (hOX2R) (Homo sapiens); construct: expressed in transfected cells; experiment: Measurement of orexin type 2 receptor agonist activity (FLIPR calcium fluorescence); format: cell-based; details: CHO cells expressing hOX2R, FLIPR calcium fluorescence; read-out: hOx2 pEC50 (converted)
Sequence (O43614 whole entry): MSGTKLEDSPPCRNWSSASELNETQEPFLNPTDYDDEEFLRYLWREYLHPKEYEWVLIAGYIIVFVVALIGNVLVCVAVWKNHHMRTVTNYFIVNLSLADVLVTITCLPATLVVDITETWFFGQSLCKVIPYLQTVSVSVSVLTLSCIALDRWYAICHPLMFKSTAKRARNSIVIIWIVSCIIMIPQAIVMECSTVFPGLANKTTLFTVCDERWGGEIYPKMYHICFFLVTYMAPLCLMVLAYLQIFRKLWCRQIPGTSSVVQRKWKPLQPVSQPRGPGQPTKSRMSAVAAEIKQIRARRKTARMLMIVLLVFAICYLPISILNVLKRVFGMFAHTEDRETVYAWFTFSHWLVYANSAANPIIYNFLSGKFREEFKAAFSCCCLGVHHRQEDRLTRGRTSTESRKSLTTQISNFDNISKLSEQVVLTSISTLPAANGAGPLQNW
measured attribute: EC50

Example cases with answers are listed next.
N#CC1(C(=O)N2CC3(CC3)[C@H](NS(=O)(=O)CF)[C@@H]2Cc2cc(F)cc(-c3ccccc3)c2F)CCC1 ... 0.0794 to 1 nM
CN(C1CC1)S(=O)(=O)N[C@@H]1[C@H](Cc2cccc(-c3ccccc3)c2)N(C(=O)[C@H]2CCO2)CC12CC2 ... 10 to 100 nM
CN(CC(F)F)C(=O)N1CC2(CC2)[C@H](NS(C)(=O)=O)[C@@H]1Cc1cccc(-c2ccccc2)c1F ... 0.0794 to 1 nM
CC(C)C(=O)N1CC2(CC2)[C@H](NS(C)(=O)=O)[C@@H]1Cc1cccc(-c2ccccc2F)c1 (racemic) ... 1 to 10 nM
CC(F)C(=O)N1CC2(CC2)C(NS(C)(=O)=O)C1Cc1cccc(-c2ccccc2)c1 (single isomer, unassigned) [Compound 1] ... 10 to 100 nM

EC50 lookup needed for CS(=O)(=O)N[C@@H]1[C@H](Cc2cccc(-c3cccc(F)c3)c2F)N(C(=O)[C@H]2CCO2)CC12CC2 , thanks. 1 to 10 nM

Also O=C(NCC(F)(F)F)N1CC2(CC2)[C@H](NS(=O)(=O)CF)[C@@H]1Cc1cc(F)cc(-c2ccccc2)c1F , if possible. 0.0794 to 1 nM

Also C[C@H](F)C(=O)N1CC2(CC2)[C@H](NS(C)(=O)=O)[C@@H]1Cc1cccc(-c2ccccc2)c1F , if possible. 1 to 10 nM

Also CC(F)(F)C(=O)N1CC2(CC2)[C@H](NS(=O)(=O)CF)[C@@H]1Cc1cccc(-c2cccc(F)c2)c1F , if possible. 1 to 10 nM

The values you see were collected from patent US12503475B2.
